Overview of recorded percent inhibition of viability for various compounds
Test system: NK-92 (IL-2 2.5 ng/mL);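 note: normalised to DMSO-only wells as negative and benzethonium chloride as positive control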
procedure.details: percent inhibition of viability; higher = more inhibition
condition.description: 72 h; 10000 nM
Give the quantity in %, number only.

Worked cases, answers included:
{"compound": "CC(C)[C@H]1C(=O)N[C@@H](CCCNC(=N)N)C(=O)NCC(=O)N[C@@H](CC(=O)O)C(=O)N[C@H](Cc2ccccc2)C(=O)N1C [Cilengitide] (max concentration tested 10000 nM)", "scale.unit": "%", "readout.number": -3.46}
{"compound": "c1ccc2c(CCNc3ccc(Nc4ccncc4)cc3)c[nH]c2c1 [Serdemetan] (max concentration tested 10000 nM)", "scale.unit": "%", "readout.number": 89.1}
{"compound": "Cc1ccc(NC(=O)c2ccc(CN3CCN(C)CC3)cc2)cc1Nc1nc(-c2cccnc2)cs1 [Masitinib] (max concentration tested 10000 nM)", "scale.unit": "%", "readout.number": 96.5}

Give the reported value of percent inhibition of viability for this record: C=C1C[C@@H]2[C@H](CC[C@]3(C)C(=O)CC[C@@H]23)[C@@]2(C)C=CC(=O)C=C12 [Exemestane] (max concentration tested 10000 nM) 44.8

Give the reported value of percent inhibition of viability for this record: CNC(=O)c1cccc(-c2ccc3c(N4CCOC[C@@H]4C)nc(N4CCOC[C@@H]4C)nc3n2)c1 [AZD2014] (max concentration tested 10000 nM) 86.6

Give the reported value of percent inhibition of viability for this record: CNC(=O)c1ccc(N2C(=S)N(c3ccc(C#N)c(C(F)(F)F)c3)C(=O)C23CCC3)cc1F [RD162] (max concentration tested 10000 nM) 33.8

Give the reported value of percent inhibition of viability for this record: CNC(=O)c1ccc(N2C(=S)N(c3cnc(C#N)c(C(F)(F)F)c3)C(=O)C23CCC3)cc1F [ARN 509] (max concentration tested 10000 nM) 23

Give the reported value of percent inhibition of viability for this record: CS(=O)(=O)c1ccc(-c2cnc(N)c(C(=O)Nc3ccccc3)n2)cc1 [VE-821] (max concentration tested 10000 nM) 48

###

System: normal primary NK cells, pool 1 (3 donors) (IL-2 2.5 ng/mL)
procedure.details: drug sensitivity score (DSS) (DSS units); higher = more sensitive; extreme values may be limits of the assay
condition.description: 72 h
property.measured: drug sensitivity score
Lab note: record just the number, no unit beside it.

Worked cases, answers included:
{"molecule": "CCC(C)n1ncn(-c2ccc(N3CCN(c4ccc(OCC5COC(Cn6cncn6)(c6ccc(Cl)cc6Cl)O5)cc4)CC3)cc2)c1=O (centres undefined) [Itraconazole] (max concentration tested 5000 nM)", "drug sensitivity score": 2.13}
{"molecule": "C[C@]1(O)C[C@@H](c2nc(-c3ccc4ccc(-c5ccccc5)nc4c3)c3c(N)nccn32)C1 [Linsitinib] (max concentration tested 10000 nM)", "drug sensitivity score": 0.79}
{"molecule": "Cn1cnc2c(F)c(Nc3ccc(Br)cc3F)c(C(=O)NOCCO)cc21 [Binimetinib] (max concentration tested 1000 nM)", "drug sensitivity score": 4.75}
{"molecule": "C[C@@H](Nc1cc(F)cc(F)c1)c1cc(C(=O)N(C)C)cc2c(=O)cc(N3CCOCC3)oc12 [AZD-8186] (max concentration tested 1000 nM)", "drug sensitivity score": 0.51}
{"molecule": "C#Cc1cccc(Nc2ncnc3cc(OC)c(OCCCCCCC(=O)NO)cc23)c1 [CUDC-101] (max concentration tested 10000 nM)", "drug sensitivity score": 17.9}
{"molecule": "O=C1CN2Cc3c(ccc(Cl)c3Cl)N=C2N1 [Anagrelide] (max concentration tested 10000 nM)", "drug sensitivity score": 0}
{"molecule": "Oc1ncnc2[nH]ncc12 [Allopurinol] (max concentration tested 10000 nM)", "drug sensitivity score": 0}
{"molecule": "O=C(Nc1cccc(C(F)(F)F)c1)Nc1cc(S(=O)(=O)NC2CC2)ccc1-c1ccsc1 [AGI-6780] (max concentration tested 10000 nM)", "drug sensitivity score": 1.25}

Tell me drug sensitivity score of CN1CCC(COc2cnc(-c3cccc(Cn4nc(-c5cccc(C#N)c5)ccc4=O)c3)nc2)CC1 (max concentration tested 1000 nM) when tested on normal primary NK cells, pool 1 (3 donors) (IL-2 2.5 ng/mL). 0

Tell me drug sensitivity score of O=C(Cc1ccc(-c2ccc(OCCN3CCOCC3)cc2)cn1)NCc1ccccc1 [KX2-391] (max concentration tested 10000 nM) when tested on normal primary NK cells, pool 1 (3 donors) (IL-2 2.5 ng/mL). 3.06

Tell me drug sensitivity score of CC(C)(C)c1cc(NC(=O)Nc2ccc(-c3cn4c(n3)sc3cc(OCCN5CCOCC5)ccc34)cc2)no1 [Quizartinib] (max concentration tested 1000 nM) when tested on normal primary NK cells, pool 1 (3 donors) (IL-2 2.5 ng/mL). 0

Tell me drug sensitivity score of CC(C)c1cc(-c2n[nH]c(=O)n2-c2ccc3c(ccn3C)c2)c(O)cc1O [Ganetespib] (max concentration tested 1000 nM) when tested on normal primary NK cells, pool 1 (3 donors) (IL-2 2.5 ng/mL). 23.5

Tell me drug sensitivity score of FC(F)c1nc2ccccc2n1-c1nc(N2CCOCC2)nc(N2CCOCC2)n1 [ZSTK474] (max concentration tested 10000 nM) when tested on normal primary NK cells, pool 1 (3 donors) (IL-2 2.5 ng/mL). 7.96

Tell me drug sensitivity score of O=C(Nc1ccc(OC(F)(F)F)cc1)c1sccc1NCc1ccnc2ccccc12 [OSI-930] (max concentration tested 2500 nM) when tested on normal primary NK cells, pool 1 (3 donors) (IL-2 2.5 ng/mL). 0

Tell me drug sensitivity score of CC(C)(C)c1cnc(CSc2cnc(NC(=O)C3CCNCC3)s2)o1 [SNS-032] (max concentration tested 10000 nM) when tested on normal primary NK cells, pool 1 (3 donors) (IL-2 2.5 ng/mL). 28.1

Tell me drug sensitivity score of CO[C@H]1C[C@@H]2CC[C@@H](C)[C@@](O)(O2)C(=O)C(=O)N2CCCC[C@H]2C(=O)O[C@H]([C@H](C)C[C@@H]2CC[C@@H](OP(C)(C)=O)[C@H](OC)C2)CC(=O)[C@H](C)/C=C(\C)[C@@H](O)[C@@H](OC)C(=O)[C@H](C)C[C@H](C)/C=C/C=C/C=C/1C [Ridaforolimus] (max concentration tested 100 nM) when tested on normal primary NK cells, pool 1 (3 donors) (IL-2 2.5 ng/mL). 3.96

Tell me drug sensitivity score of O=C(Nc1cccnc1)N1CCC(Cc2cccc(Oc3ccc(C(F)(F)F)cn3)c2)CC1 [PF-3845] (max concentration tested 10000 nM) when tested on normal primary NK cells, pool 1 (3 donors) (IL-2 2.5 ng/mL). 3.87

Tell me drug sensitivity score of Nc1nccc(-c2c(-c3ccc(F)cc3)ncn2C2CCCCC2)n1 (max concentration tested 10000 nM) when tested on normal primary NK cells, pool 1 (3 donors) (IL-2 2.5 ng/mL). 3.09

Tell me drug sensitivity score of CCOc1ccn(-c2ccc(F)cc2)c(=O)c1C(=O)Nc1ccc(Oc2ccnc(N)c2Cl)c(F)c1 (max concentration tested 2500 nM) when tested on normal primary NK cells, pool 1 (3 donors) (IL-2 2.5 ng/mL). 0

Source listed as the supplement of paper PMC5908809.
